- TARGET_OR_TEST_SYSTEM: α1
- EXPERIMENTAL_PROTOCOL: in vitro α1 binding, [3H]WB-4101 (Table IV)
- PROTOCOL_CONDITIONS: [3H]WB-4101, brain tissue, 50 mM Hepes.KOH, pH 7.4; read-out: α1 Binding IC50
Listed here are molecules together with their documented log10 IC50.
Give log10 of IC50, with IC50 taken in nM.

Examples from the recorded data:
Enquiry: Item under review: NS(=O)(=O)c1cc2c(cc1Cl)CN(CCCN1CCN(Cc3ccccc3)CC1)C2=O . Reported log10 IC50?
Return: 2.97

Enquiry: Now the molecule Cl.N#Cc1cccnc1N1CCN(CCCN2Cc3cc(Cl)c(S(N)(=O)=O)cc3C2=O)CC1 [Example VI, hydrochloride]
Return: 2.48

Enquiry: Consider next the molecule COc1ccccc1N1CCN(CCN2Cc3cc(Cl)c(S(N)(=O)=O)cc3C2=O)CC1 in the same way.
Return: 1.37

Enquiry: Another molecule: Cl.NS(=O)(=O)c1cc2c(cc1Cl)CN(CCCN1CCN(C(=O)c3ccccc3)CC1)C2=O.O [Example VII, hydrochloride monohydrate]
Return: 5.18

Enquiry: Also, COc1ccccc1N1CCN(CCCN2Cc3cc(Cl)c(S(N)(=O)=O)cc3C2=O)CC1 please.
Return: 0.17

Enquiry: Same lookup for NS(=O)(=O)c1cc2c(cc1Cl)CN(CCCN1CCN(C(=O)c3ccc(F)cc3)CC1)C2=O , please.
Return: 5.16

Proceed to the following item.
Enquiry: Any idea what its log10 IC50 is? The molecule is Cl.NS(=O)(=O)c1cc2c(cc1Cl)CN(CCCN1CCN(c3ccccc3)CC1)C2=O.O [Example X, hydrochloride hydrate]
Return: 1.20
